# TARGET_SYSTEM: T1, human PD-1 expressed on the cell surface (human, UniProt Q15116 25-288)
# T1 construct: whole, on cells; PD-1 on CD3/CD28 stimulated human T cells (flow cytometry), on Promega Jurkat effector cells and on human M1 macrophages (functional assays); also called PD1+ positive CD3+ T cell population; PD-1+ T cells
# T1 sequence (Q15116 25-288): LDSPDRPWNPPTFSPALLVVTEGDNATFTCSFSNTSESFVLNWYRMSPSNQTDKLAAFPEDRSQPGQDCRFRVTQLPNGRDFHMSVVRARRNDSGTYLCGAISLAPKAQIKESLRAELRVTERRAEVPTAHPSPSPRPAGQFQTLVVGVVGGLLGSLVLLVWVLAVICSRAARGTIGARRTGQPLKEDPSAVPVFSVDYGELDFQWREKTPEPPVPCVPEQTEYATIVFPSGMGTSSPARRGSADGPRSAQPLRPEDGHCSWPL
# TEST_DETAILS: flow cytometry on CD3/CD28 stimulated human T cells (PD1+ CD3+); given as ED50
RECORDED_ENDPOINT: EC50

Batch lookup, EC50 per entry.
1. HILD (antibody, human IgG4 S228P, kappa, V domains shown, also called humanized anti-PD1 variant HI heavy chain + LD light chain) VH: QIQLVQSGSELKKPGASVKVSCKASGYTFTHYAMNWVRQAPGQGLEWMGWINTNTGEPTYAQGFTGRFVFSLDTSVSTAYLQISSLKAEDTAVYYCAREREPGMDAWGQGTLVTVSS VL: DVVMTQSPLSLPVTLGQPASISCRSSQSLVHANTNTYLEWYQQRPGQSPRLLIYKVSNRFSGVPDRFSGSGSGTDFTLKISRVEAEDVGVYYCFQGTHVPNTFGQGTKLEIKR
2. HJLD (antibody, human IgG4 S228P, kappa, V domains shown, also called humanized anti-PD1 variant HJ heavy chain + LD light chain) VH: QIQLVQSGSELKKPGASVKVSCKASGYTFTHYAMNWVRQAPGQGLEWMGWINTNTGEPTYAQGFTGRFVFSLDTSVSTAYLQISSLKAEDTAVYYCAREREPGMDYWGQGTLVTVSS VL: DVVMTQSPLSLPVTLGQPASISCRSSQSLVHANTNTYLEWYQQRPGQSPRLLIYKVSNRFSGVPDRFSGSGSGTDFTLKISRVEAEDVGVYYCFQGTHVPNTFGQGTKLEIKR
3. HGLD (antibody, human IgG4 S228P, kappa, V domains shown, also called humanized anti-PD1 variant HG heavy chain + LD light chain) VH: QIQLVQSGSELKKPGASVKVSCKASGYTFTHYAMNWVRQAPGQGLEWMGWINTNTGEPTYAQGFTGRFVFSLDTSVSTAYLQISSLKAEDTAVYYCAREREPGMESWGQGTLVTVSS VL: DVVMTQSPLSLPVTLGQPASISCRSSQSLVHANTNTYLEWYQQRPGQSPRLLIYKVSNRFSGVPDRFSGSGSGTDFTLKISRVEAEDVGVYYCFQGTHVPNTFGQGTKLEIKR

Outgoing:
1. 0.118 nM
2. 0.241 nM
3. 1.54 nM
